# assay_summary: patients with anti-drug antibodies; higher = more immunogenic
What patients with anti-drug antibodies was measured for each of the following?
Give bare numbers, in %.

protein	patients with anti-drug antibodies [%]
unnamed (protein) chain 1: QVQLQQSGAELVKPGASVKLSCKASGYTFTSYDINWVRQRPEQGLEWIGWIFPGDGSTKYNEKFKGKATLTTDKSSSTAYMQLSRLTSEDSAVYFCAREDYYDNSYYFDYWGQGTTLTVSS chain 2: DIQMTQTTSSLSASLGDRVTISCRASQDISNYLNWYQQKPDGTVKLLIYYTSRLHSGVPSRFSGSGSGTDYSLTISNLEQEDIATYFCQQGNTLPWTFGGGTKLEIK	85
unnamed (protein) chain 1: QVQLQQSDAELVKPGASVKISCKASGYTFTDHAIHWAKQKPEQGLEWIGYISPGNDDIKYNEKFKGKATLTADKSSSTAYMQLNSLTSEDSAVYFCKRSYYGHWGQGTTLTVSS chain 2: DIQMTQSPASLSVSVGETVTITCRASENIYSNLAWYQQKQGKSPQLLVYAATNLADGVPSRFSGSGSGTQYSLKINSLQSEDFGSYYCQHFWGTPYTFGGGTRLEIK	55
unnamed (protein) chain 1: EVQLVQSGAEVKKPGESLKISCKGSGYSFTTYWLGWVRQMPGKGLDWIGIMSPVDSDIRYSPSFQGQVTMSVDKSITTAYLQWNSLKASDTAMYYCARRRPGQGYFDFWGQGTLVTVSS chain 2: DIQMTQSPSSLSASVGDRVTITCRASQGISSWLAWYQQKPEKAPKSLIYAASSLQSGVPSRFSGSGSGTDFTLTISSLQPEDFATYYCQQYNIYPYTFGQGTKLEIK	4
unnamed (protein) chain 1: QVQLVQSGAEVMKPGSSVKVSCKASGYTFSWYWLEWVRQAPGHGLEWMGEIDPGTFTTNYNEKFKARVTFTADTSTSTAYMELSSLRSEDTAVYYCARFSHFSGSNYDYFDYWGQGTLVTVSS chain 2: EIVMTQSPATLSVSPGERATLSCRASQSIGTNIHWYQQKPGQAPRLLIYYASESISGIPARFSGSGSGTEFTLTISSLQSEDFAVYYCQQSWSWPTTFGGGTKVEIK	6.3

Memo: unnamed (protein) chain 1: QVQLVQSGAEVKKPGASVKVSCKGSGYTFTSYWMHWVRQAPGQRLEWIGEIDPSESNTNYNQKFKGRVTLTVDISASTAYMELSSLRSEDTAVYYCARGGYDGWDYAIDYWGQGTLVTVSS chain 2: DVVMTQSPLSLPVTPGEPASISCRSSQSLAKSYGNTYLSWYLQKPGQSPQLLIYGISNRFSGVPDRFSGSGSGTDFTLKISRVEAEDVGVYYCLQGTHQPYTFGQGTKVEIK , reported patients with anti-drug antibodies: 9.5
